Sourced from paper PMC7413254

Entries and their inhibition at 1000 µM
- SYSTEM_UNDER_TEST: UniProtKB Q8IBZ9
- PROCEDURE_TEXT: cell-based
- Format: cell-based
- EXPERIMENTAL_CONTEXT: PfCRT3D7 oocytes; [test solute] = 1 mM; total [3H]CQ transport, normalised to the oocyte type control; read-out: Uptake of [3H]CQ (% PfCRT3D7 control), cis-inhibition
- Experimental: The orientation of PfCRT in the parasite’s DV membrane, and also in the oocyte plasma membrane, is such that its N- and C-termini extend into the cytosol. The oocytes were suspended in a reaction buffer adjusted to pH 5.5 to mimic the pH of the DV lumen[1],[2]. […] Unless specified otherwise, this is the direction in which substrate transport was measured in the oocyte assays. […]
Write it as a number; the unit % goes unstated.

For "C[C@@H](O)[C@H](N)C(=O)O" , what is its reported inhibition at 1000 µM?
100

For "NC(=O)CC[C@H](N)C(=O)O" , what is its reported inhibition at 1000 µM?
99

For "N[C@@H](CO)C(=O)O" , what is its reported inhibition at 1000 µM?
100

---
For "CC[C@H](C)[C@H](N)C(=O)O" , what is its reported inhibition at 1000 µM?
98

For "N=C(N)NCCC[C@H](N)C(=O)O" , what is its reported inhibition at 1000 µM?
99

For "C[C@H](N)C(=O)O" , what is its reported inhibition at 1000 µM?
100

For "NCCCC[C@H](N)C(=O)O" , what is its reported inhibition at 1000 µM?
101

For "CC(C)C[C@H](N)C(=O)O" , what is its reported inhibition at 1000 µM?
100

====

- SYSTEM_UNDER_TEST: PfCRT^3D7 (Plasmodium falciparum)
- Sequence (Q8IBZ9 59-398): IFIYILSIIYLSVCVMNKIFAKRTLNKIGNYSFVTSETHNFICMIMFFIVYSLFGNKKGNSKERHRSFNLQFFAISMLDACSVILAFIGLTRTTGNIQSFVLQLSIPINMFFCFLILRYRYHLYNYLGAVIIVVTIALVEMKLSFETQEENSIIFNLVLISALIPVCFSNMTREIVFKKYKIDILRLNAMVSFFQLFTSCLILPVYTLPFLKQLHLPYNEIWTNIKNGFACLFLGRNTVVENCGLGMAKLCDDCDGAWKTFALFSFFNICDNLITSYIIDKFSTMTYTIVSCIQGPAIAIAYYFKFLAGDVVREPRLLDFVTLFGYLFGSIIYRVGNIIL
- PROCEDURE_TEXT: cell-based
- Assay type: cell-based
- EXPERIMENTAL_CONTEXT: [test solute]i = 45 mM (intracellular; 30 mM for some solutes due to solubility); PfCRT3D7 oocytes; normalised to oocyte type control
ENDPOINT: PfCRT-mediated [3H]CQ transport, trans-stimulation (% PfCRT3D7 control)
Write it as a number; the unit % PfCRT3D7 control goes unstated.

// worked examples, PfCRT-mediated [3H]CQ transport, trans-stimulation (% PfCRT3D7 control) included
For VVYPWTQR [VR-8] , what is its reported PfCRT-mediated [3H]CQ transport, trans-stimulation (% PfCRT3D7 control)?
98

For PHFDLS [PS-6] , what is its reported PfCRT-mediated [3H]CQ transport, trans-stimulation (% PfCRT3D7 control)?
188

For DPENFR [DR-6] , what is its reported PfCRT-mediated [3H]CQ transport, trans-stimulation (% PfCRT3D7 control)?
188

For KEFTPPVQA [KA-9] , what is its reported PfCRT-mediated [3H]CQ transport, trans-stimulation (% PfCRT3D7 control)?
160

For DTSLKPIS [DS-8] , what is its reported PfCRT-mediated [3H]CQ transport, trans-stimulation (% PfCRT3D7 control)?
180

For EFTPPVQA [EA-8] , what is its reported PfCRT-mediated [3H]CQ transport, trans-stimulation (% PfCRT3D7 control)?
174

For LSDLHAHK [LK-8] , what is its reported PfCRT-mediated [3H]CQ transport, trans-stimulation (% PfCRT3D7 control)?
96

For DMPNALS [DS-7, host-derived peptide upstream of PL-4] , what is its reported PfCRT-mediated [3H]CQ transport, trans-stimulation (% PfCRT3D7 control)?
188

For HAGEYG [HG-6] , what is its reported PfCRT-mediated [3H]CQ transport, trans-stimulation (% PfCRT3D7 control)?
190

For HVDDMPNA [HA-8] , what is its reported PfCRT-mediated [3H]CQ transport, trans-stimulation (% PfCRT3D7 control)?
97

---
For HVDPENFRL [HL-9] , what is its reported PfCRT-mediated [3H]CQ transport, trans-stimulation (% PfCRT3D7 control)?
97

For LHVDPENF [LF-8] , what is its reported PfCRT-mediated [3H]CQ transport, trans-stimulation (% PfCRT3D7 control)?
98

====

Entries and their [3H]CQ transport (% PfCRTDd2 control), trans-stimulation, PfCRTDd2
- SYSTEM_UNDER_TEST: PfCRT^Dd2 (Plasmodium falciparum, UniProt Q9N623, A220S/I356T/K76T/M74I/N326S/N75E/Q271E/R371I)
- Sequence (Q9N623 whole entry A220S/I356T/K76T/M74I/N326S/N75E/Q271E/R371I): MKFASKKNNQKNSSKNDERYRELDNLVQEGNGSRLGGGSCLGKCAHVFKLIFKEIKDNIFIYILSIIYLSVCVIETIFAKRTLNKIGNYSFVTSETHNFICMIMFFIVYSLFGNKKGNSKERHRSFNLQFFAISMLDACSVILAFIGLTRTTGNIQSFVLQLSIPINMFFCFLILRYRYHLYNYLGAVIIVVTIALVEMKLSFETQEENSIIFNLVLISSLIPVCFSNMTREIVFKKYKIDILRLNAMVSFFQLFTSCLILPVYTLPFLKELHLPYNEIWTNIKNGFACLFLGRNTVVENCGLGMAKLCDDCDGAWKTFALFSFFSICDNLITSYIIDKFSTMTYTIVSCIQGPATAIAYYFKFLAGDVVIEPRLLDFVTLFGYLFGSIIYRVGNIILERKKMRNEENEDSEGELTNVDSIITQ
- PROCEDURE_TEXT: cell-based
- Type: cell-based
- EXPERIMENTAL_CONTEXT: trans-stimulation; [test solute]i = 45 mM (30 mM for some solutes due to solubility); PfCRT-mediated component (background subtracted); mean ± SEM; SEM
Write it as a number; the unit % PfCRTDd2 control goes unstated.

For FSDGLA [FA-6] , what is its reported [3H]CQ transport (% PfCRTDd2 control), trans-stimulation, PfCRTDd2?
98

For AEALERMF [AF-8] , what is its reported [3H]CQ transport (% PfCRTDd2 control), trans-stimulation, PfCRTDd2?
96

---
For VDPVNFK [VK-7] , what is its reported [3H]CQ transport (% PfCRTDd2 control), trans-stimulation, PfCRTDd2?
98

For HVDPENF [HF-7] , what is its reported [3H]CQ transport (% PfCRTDd2 control), trans-stimulation, PfCRTDd2?
112

For HVDDMP [HP-6] , what is its reported [3H]CQ transport (% PfCRTDd2 control), trans-stimulation, PfCRTDd2?
112

For SHCLLVT [ST-7] , what is its reported [3H]CQ transport (% PfCRTDd2 control), trans-stimulation, PfCRTDd2?
113

For PHFDLS [PS-6] , what is its reported [3H]CQ transport (% PfCRTDd2 control), trans-stimulation, PfCRTDd2?
95

For FPHFDLS [FS-7] , what is its reported [3H]CQ transport (% PfCRTDd2 control), trans-stimulation, PfCRTDd2?
98

For EFTPPVQ [EQ-7] , what is its reported [3H]CQ transport (% PfCRTDd2 control), trans-stimulation, PfCRTDd2?
112

====

- SYSTEM_UNDER_TEST: PfCRT^3D7 (Plasmodium falciparum)
- PROCEDURE_TEXT: cell-based
- Format: cell-based
- EXPERIMENTAL_CONTEXT: total [3H]CQ transport; [test solute] = 1 mM; mean ± SEM; SEM; read-out: Uptake of [3H]CQ (% PfCRTDd2 control), cis-inhibition, PfCRT3D7
ENDPOINT: inhibition at 1000 µM (%)
Write it as a number; the unit % goes unstated.

// worked examples, inhibition at 1000 µM included
For CC(C)[C@H](N)C(=O)O [L-valine] , what is its reported inhibition at 1000 µM?
3.4

For C[C@H](N)C(=O)O [L-alanine] , what is its reported inhibition at 1000 µM?
3.1

For N=C(N)NCCC[C@H](N)C(=O)O [L-arginine] , what is its reported inhibition at 1000 µM?
2.9

For CC[C@H](C)[C@H](N)C(=O)O [L-isoleucine] , what is its reported inhibition at 1000 µM?
2.8

---
For N[C@@H](Cc1c[nH]c2ccccc12)C(=O)O [L-tryptophan] , what is its reported inhibition at 1000 µM?
2.5

For CC(C)C[C@H](N)C(=O)O [L-leucine] , what is its reported inhibition at 1000 µM?
3.1

For C[C@@H](O)[C@H](N)C(=O)O [L-threonine] , what is its reported inhibition at 1000 µM?
2.8

For NCCCC[C@H](N)C(=O)O [L-lysine] , what is its reported inhibition at 1000 µM?
3.3

For N[C@@H](CCC(=O)O)C(=O)O [L-glutamic acid] , what is its reported inhibition at 1000 µM?
2.8

For N[C@@H](Cc1c[nH]cn1)C(=O)O [L-histidine] , what is its reported inhibition at 1000 µM?
2.8

For NC(=O)CC[C@H](N)C(=O)O [L-glutamine] , what is its reported inhibition at 1000 µM?
2.1

For N[C@@H](CS)C(=O)O [L-cysteine] , what is its reported inhibition at 1000 µM?
2.5

For N[C@@H](CO)C(=O)O [L-serine] , what is its reported inhibition at 1000 µM?
2.2

For N[C@@H](Cc1ccccc1)C(=O)O [L-phenylalanine] , what is its reported inhibition at 1000 µM?
3.1

====

Entries and their inhibition at 500 µM
- SYSTEM_UNDER_TEST: PfCRT^Ecu1110 (Plasmodium falciparum, UniProt Q9N623, A220S/I356L/K76T/N326D)
- PROCEDURE_TEXT: [3H]CQ uptake into Xenopus oocytes, cis-inhibition by unlabelled solute
- Type: cell-based
- EXPERIMENTAL_CONTEXT: read-out: Uptake of [3H]CQ (% PfCRTEcu1110 control), cis-inhibition
Could you write the number and then its unit?

// worked examples, inhibition at 500 µM included
For "N[C@@H](Cc1ccc(O)cc1)C(=O)O" , what is its reported inhibition at 500 µM?
99%

For "N[C@@H](Cc1c[nH]c2ccccc12)C(=O)O" , what is its reported inhibition at 500 µM?
98%

For "CC(C)[C@H](N)C(=O)O" , what is its reported inhibition at 500 µM?
100%

For "N[C@@H](CS)C(=O)O" , what is its reported inhibition at 500 µM?
95%

Now let's try a different one.
For "NCCCC[C@H](N)C(=O)O" , what is its reported inhibition at 500 µM?
95%
